# System: spleen
# test_name: In vivo analysis in CD-1 mice: luciferase mRNA-LNP, luminescence in the spleen
# condition: LNP 50/10/38.5/1.5 mol % ionizable lipid/DSPC/chol/PEG-DMG, N/P 6, mRNA encoding luciferase 1 mg/kg intravenous, 4 hours post-injection (FIG. 2B)
parameter: luminescence intensity per mg spleen compared with the MC3 benchmark

INSERT INTO measurements (compound, assay_value) VALUES
  ('CCCCCCCCCC(=O)OC(CCCCCC(CCCCCC(CSCCCCCC)OC(=O)CCCCCCCCC)N(C)CCCCO)CSCCCCCC (stereo not shown)', 'higher'),
  ('CCCCCCCCCC(=O)OC(CCCCC(CCCCC(CSCCCCCCC)OC(=O)CCCCCCCCC)N(C)CCCCO)CSCCCCCCC (stereo not shown)', 'higher'),
  ('CCCCCCSCC(CCCCCC(CCCCCC(CSCCCCCC)OC(=O)CCC1CCCCC1)OC(=O)CCCN(C)C)OC(=O)CCC1CCCCC1 (stereo not shown)', 'higher'),
  ('CCCCCCCCC(=O)OC(CCCCCC(CCCCCC(CSCCCCCCC)OC(=O)CCCCCCCC)N(C)CCCCO)CSCCCCCCC (stereo not shown)', 'higher'),
  ('CCCCCCCCCC(=O)OC(CCCCC(CCCCC(CSC1CCCCC1)OC(=O)CCCCCCCCC)OC(=O)CCCN(C)C)CSC1CCCCC1 (stereo not shown)', 'higher'),
  ('CCCCCCCCCC(=O)OC(CCCCCC(CCCCCC(CSCCCCC)OC(=O)CCCCCCCCC)N(C)CCCCO)CSCCCCC (stereo not shown)', 'higher'),
  ('CCCCCCCCCC(=O)OC(CCCCCC(CCCCCC(CSCCCCCC)OC(=O)CCCCCCCCC)OC(=O)CCCN(C)C)CSCCCCCC (stereo not shown)', 'higher');

Just for reference, patent US20260102347A1 is where these values come from.
